meta.source: ChEMBL document CHEMBL3885881

Reported CARBON DIOXIDE is given for each of the following compounds.
Species: Rattus norvegicus
Assay: DrugMatrix - Regimen: Daily Repeat
Format: toxicity, organism-based, Sprague-Dawley
Parameters: regimen Daily Repeat, gender Male, age 6-8 weeks
Settings: in vivo, po, 0 mg/kg, 120 h, tissue Plasma, route oral GAVAGE, dose level Control, time 5 day, […]
Expressed in mmol/L, but write only the number.

Below, each entry is followed by its recorded CARBON DIOXIDE result.
- Smiles Record: "CCn1cc(C(=O)O)c(=O)c2cc(F)c(N3CCNCC3)nc21"
  Measure Name: "CARBON DIOXIDE"
  Quantitative Result: 25.33
- Smiles Record: "COc1ncnc(NS(=O)(=O)c2ccc(N)cc2)c1OC"
  Measure Name: "CARBON DIOXIDE"
  Quantitative Result: 30.83

Here's the next entry for you.
Challenge: Tell me the measured CARBON DIOXIDE of CC(C)Cc1ccc(CC(=O)O)cc1 , please.
Response given: 27.17
